Target: FGFR1 (UniProt P11362)
Sequence (P11362 whole entry, looked up): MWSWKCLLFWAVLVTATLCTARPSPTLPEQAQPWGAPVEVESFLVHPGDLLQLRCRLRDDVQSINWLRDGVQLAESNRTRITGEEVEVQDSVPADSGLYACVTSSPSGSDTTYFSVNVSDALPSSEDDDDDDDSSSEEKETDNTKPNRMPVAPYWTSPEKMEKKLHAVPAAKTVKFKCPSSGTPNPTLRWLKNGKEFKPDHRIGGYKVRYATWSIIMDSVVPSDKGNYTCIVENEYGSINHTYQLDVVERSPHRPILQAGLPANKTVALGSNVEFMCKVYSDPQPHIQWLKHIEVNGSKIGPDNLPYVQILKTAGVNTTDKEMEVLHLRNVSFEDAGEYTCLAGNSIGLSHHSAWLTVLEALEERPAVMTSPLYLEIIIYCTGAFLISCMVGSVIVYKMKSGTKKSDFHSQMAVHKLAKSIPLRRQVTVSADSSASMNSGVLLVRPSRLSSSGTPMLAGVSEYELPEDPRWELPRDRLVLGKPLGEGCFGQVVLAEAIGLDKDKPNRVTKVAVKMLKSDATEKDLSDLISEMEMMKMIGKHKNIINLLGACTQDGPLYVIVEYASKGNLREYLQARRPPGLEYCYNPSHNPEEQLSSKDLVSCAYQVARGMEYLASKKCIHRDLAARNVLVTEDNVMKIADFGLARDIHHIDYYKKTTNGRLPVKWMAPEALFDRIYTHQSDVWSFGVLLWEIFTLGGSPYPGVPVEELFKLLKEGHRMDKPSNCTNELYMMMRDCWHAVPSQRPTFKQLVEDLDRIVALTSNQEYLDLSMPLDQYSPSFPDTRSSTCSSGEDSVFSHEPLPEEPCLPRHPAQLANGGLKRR
Assay: phosphorylation enrichment, bacterial display (enrichment ratio); higher = better substrate or ligand; peptides without Tyr show the background;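 note: 11-residue human phosphosite peptides and single-mutation variants displayed on the E. coli surface, counted by deep sequencing, each peptide's frequency after selection divided by its frequency in the unselected input library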;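 note: frequency after pTyr selection over input frequency; kinase dosed for 20-30% of maximal phosphorylation in three min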
sequences and their reported phosphorylation enrichment
parameter: phosphorylation enrichment

- HCFNSYTFPRL [PAK7_Y316_S312C_YF]: 0.713
- GKGGSYSQAAC [HLA-B_Y344]: 0.385
- WQQQSYLDLGI [CTNNB1_Y30_S33L]: 1.76
- ELPEKYSQNIY [PKP2_Y626]: 0.52
- ALAPKYHGGGG [HBB_Y146_H144P]: 0.327
- LGGSPYPSVPV [FGFR1_Y701_G703S]: 0.784
- QQLVAYYSKHA [SRC_Y232]: 0.71
- KHCEDYVFSFN [DSC1_Y846_C848F_YF]: 1.82
- GVKLTYGDAQN [SLC28A1_Y404]: 0.53
- DAVAVCHGKIS [SH2D1A_Y7_Y7C]: 0.467
- RNEAFYDTFST [EFCAB3_Y372_S370A]: 0.652
- SGSFRYGSSCE [SELE_Y390]: 0.393
- SKNSKYNAGST [PSEN1_Y315_E318G]: 0.358
- TLNHQYDFTFH [CSNK1A1_Y292_D297H_YF]: 0.557
- ERFAFYRDSPR [FOXE3_Y108]: 0.474
- SFTDPYAQPPL [KMT2D_Y2378_YF]: 0.487
- ALKKPYGVLFK [RPF2_Y59_YF]: 0.404
- TVQIMYGCDVG [HLA-A_Y123_I119V]: 0.539
- MFKPMYALFRT [HUWE1_Y4078_N4075K]: 0.606
- QDDTVYMGKVI [DCTN1_Y1244_T1249I]: 0.913
- KAESWYQTKFE [KRT75_Y342_E337K_YF]: 0.468
- AIDVGYRLIDC [AKR1B1_Y40_H42L]: 0.514
- FEPWVYSFSYE [PRKDC_Y647]: 0.655
- HVEAVYIDIAD [PITPNA_Y140]: 5.13
- IQVDAYFSPIH [ADSL_Y432]: 0.638
- RRIHSNRGHLW [VHL_Y112_Y112N]: 0.357
- LEITWYPFDVE [RIPOR2_Y316]: 0.679
- MLEVPYVDRNS [F10_Y384]: 0.411
- FIGRIYLYLTK [GARS1_Y414]: 0.487
- GKTFTYRSVFF [ZNF80_Y200]: 0.388
- VTQEQYELHCE [CBL_Y368_Y371H]: 0.542
- YTFNSYYMHWV [IGHV1-46_Y51_T49N]: 6.62
- HIPFRYPKEFQ [IDS_Y234]: 0.442
- ALWYIYLHTRS [ENG_Y614_S615L]: 0.62
- LTTEAYEWEPC [ELMOD3_Y61_R66C]: 2.04
- MICSAYALGGL [CPS1_Y590_R587C]: 0.635
- AQRKLYRNVML [ZNF569_Y33]: 0.4
- KWRGQYDVANK [BTK_Y425_I429N]: 0.439
- EQRRAYLEGTC [HLA-C_Y183_L180R]: 0.472
- RLSARYFQGDL [PDK3_Y337_Y334S]: 0.436
- EPFELYCEMGS [CBL_Y371_Q367P_YF]: 0.897
- ICTVDYLLRLQ [RYR1_Y3921]: 0.529
- HRAVEYLLTGI [RAD23A_Y197]: 0.8
- GSCQEYTGAPY [NAXD_Y85_G81S]: 0.558
- VVQGIYGFHHF [UFSP2_Y285_YF]: 0.693
- IGLHAYGDQYR [IDH1_Y135_R132L]: 0.46
- ARQEEYSAMRD [KRAS_Y64_G60R]: 0.518
- PRDSGYSFETI [MAP1B_Y1921_S1917R_YF]: 0.912
- RSRSSYTHGLN [MYCT1_Y116]: 0.588
- MGHVNYGAFIN [GLB1_Y485_R482H_YF]: 0.449
- INSLKYAYNVS [EIF2B5_Y583_I587V]: 0.522
- NFDRVYIFHLR [MYOF_Y1137_YF]: 0.535
- TTSQPYRCLCS [USH2A_Y534]: 0.552
- FETVKYINNER [ABCB7_Y345_F346I_YF]: 0.525
- VCDSNYSASRW [LRP5_Y1552_D1551N]: 0.509
- KLYRVYCDMNT [FGB_Y269_P265L]: 0.452
- EKSREYHRLFE [PIK3R1_Y463_D464H_YF]: 0.526

----------
Molecular target: Fes (UniProt P07332)
Sequence (P07332 whole entry, looked up): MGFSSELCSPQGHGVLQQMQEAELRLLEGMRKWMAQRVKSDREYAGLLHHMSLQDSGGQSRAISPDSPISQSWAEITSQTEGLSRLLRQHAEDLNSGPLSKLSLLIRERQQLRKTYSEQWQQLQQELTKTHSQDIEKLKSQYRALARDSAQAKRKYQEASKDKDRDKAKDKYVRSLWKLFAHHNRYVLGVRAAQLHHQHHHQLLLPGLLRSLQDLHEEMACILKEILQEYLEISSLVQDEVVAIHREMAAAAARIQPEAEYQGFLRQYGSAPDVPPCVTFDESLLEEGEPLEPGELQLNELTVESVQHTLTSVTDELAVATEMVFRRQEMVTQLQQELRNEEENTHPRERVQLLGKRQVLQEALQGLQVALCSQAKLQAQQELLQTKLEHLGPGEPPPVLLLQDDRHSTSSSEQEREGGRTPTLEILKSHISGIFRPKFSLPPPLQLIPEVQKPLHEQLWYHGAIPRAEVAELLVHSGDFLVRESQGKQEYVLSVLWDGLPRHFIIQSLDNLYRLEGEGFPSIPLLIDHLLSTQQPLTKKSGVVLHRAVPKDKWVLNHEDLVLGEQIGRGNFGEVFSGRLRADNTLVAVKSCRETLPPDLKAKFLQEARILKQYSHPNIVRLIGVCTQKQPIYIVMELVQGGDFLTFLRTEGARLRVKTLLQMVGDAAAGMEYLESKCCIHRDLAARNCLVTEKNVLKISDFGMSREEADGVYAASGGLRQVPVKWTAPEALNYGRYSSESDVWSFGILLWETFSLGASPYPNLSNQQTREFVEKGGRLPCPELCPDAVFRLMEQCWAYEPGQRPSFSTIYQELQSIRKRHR
Assay: phosphorylation enrichment, bacterial display (enrichment ratio); higher = better substrate or ligand; peptides without Tyr show the background
Decide using phosphorylation enrichment: a value greater than or equal to 0.8 is met, a smaller one is not met.

- PADCRYYTFPQ [GAMT_Y222_A224T]: met
- AQRKLYRNVML [ZNF569_Y33]: not met
- PQIVKYRPDCI [LDHB_Y128_S129R]: met
- GRTNIYKNKKD [SLC26A3_Y520]: not met
- LFQAKYQIRYR [CRLF1_Y272]: met
- YMLYQYLKQIE [RPAP3_Y569_D564Y]: met
- FETVKYINNER [ABCB7_Y345_F346I_YF]: met
- DPLLTYRFPPK [LMNA_Y481]: not met
- FCIDHYLGKEM [G6PD_Y202_R198C_YF]: met
- EWKQKYEESQS [MYH6_Y1462]: met
- DQNVEYKGTVS [FHL1_Y117_W122S]: met
- ALWYIYLHTRS [ENG_Y614_S615L]: met
- ALAHKCHGGGG [HBB_Y146_Y146C]: not met
- EPGNLYIAKVE [CNTN4_Y180_T176P]: met
- ETKAFYPEEIS [HSPA1A_Y115]: met
- SEQNNYSRVAN [CWC22_Y797_R794Q]: not met
- TRNRDYDDIDD [TTYH2_Y424]: met
- IFGVSYDEYRY [CFTR_Y512]: met
- LRVHSYKSMQP [DRC7_Y516]: not met
- MYDKEYYSVHN [MET_Y1234]: met
- SLNEGYAKDFD [FBP1_Y216_R218K]: met
- FGLDHYQCDCT [PTGS1_Y54_R53H]: met
- CTLLPYFSARV [DGKE_Y269_YF]: met
- NHQFDYTFDWT [CSNK1A1_Y294_YF]: met
- AALLNYKAGRD [GRIN2A_Y737_V734L]: not met
- ISDDNYGRIRL [ARCN1_Y310_K309N]: not met
- TDLAYYLVRKG [ASL_Y376]: met
- FSGLAYTMERS [GLUD1_Y512_H507Y_YF]: met
- LTTEAYEWEPC [ELMOD3_Y61_R66C]: met
- VAVTKYCKEEL [ATP7B_Y1078]: met
- QAINEYEKWLE [MAP9_Y603]: met
- HEHVGYTTLNR [CHN1_Y148_Y143H]: not met
- TGEKLYQRKEF [ZNF283_Y627]: met
- ANFAKYGNPNE [BCHE_Y505]: not met
- LTDLRYKVSGL: not met
- GDDLSYGDVPP [IRS1_Y151_E147D]: met
- YSQNICIQNRN [PKP2_Y631_Y631C]: met
- FRASFYRRGDR [LTK_Y677_YF]: not met
- GKGGSYSQAAC [HLA-B_Y344]: not met
- LAGRFYALRSM [CKB_Y174_K177R_YF]: met
- MNKNAYHNVTA [ST3GAL6_Y306]: not met
- MGHVNYGAFIN [GLB1_Y485_R482H_YF]: not met
- TFFQMYDKGLV [IARS2_Y231_YF]: met
- AGTILYHAHLD [ASS1_Y291]: not met
- VDTPMYATMQR [TPO_Y55_A53P]: met
- LRSELYSLIAR [PHIP_Y16_F17S]: met
- FNDSAYNQQLI [ZPLD1_Y198_T197A_YF]: not met
- NKHTNYTMEHI [ACTN1_Y708]: not met
- MFNPCYGLFEF [NEDD4L_Y680_Y679C_YF]: met
- RASSVFTRSTG [CCR5_Y339_Y339F]: not met
- VNTMLYEKFTY [TEK_Y1108_T1106M]: met
- EEQKKYFNAMK [SCN5A_Y1494_YF]: met
- GSCQEYTGAPY [NAXD_Y85_G81S]: met
- PEVRRHVLPLN [RPE65_Y368_Y368H]: met
- EFKKKYSDADI [CKAP5_Y1860_YF]: not met
- FPKARYHWLVL [APTX_Y214_YF]: met
- ILCTVYAFKMR [GRM3_Y754_T758M]: met
